# assay notes: NCI Yeast Anticancer Drug Screen. Data for the sgs1 mgt1 strain (AID 161);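 further: 0% = growth of cultures given vehicle only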
# condition: S. cerevisiae sgs1 mgt1 strain, at 50.0 µM, hits give high values
# Experimental: Growth inhibition of yeast strains with defined genetic alterations is measured as a screen for potential anti-cancer activity. Selected strains with alterations in DNA damage repair or cell cycle control were exposed to compounds and growth inhibition was measured relative to vehicle treated controls. The strain used in this assay is sgs1 mgt1
Compounds without any hit were thinned out: in the full panel of roughly 79,000, 15% have a hit.
# growth inhibition per entry
Output spec: scalar in %, unitless text.

Illustrative cases are given below, each with its answer.
| compound | measurement units | growth inhibition |
| --- | --- | --- |
| CCC(=O)NCCCCC1CCCC[N+]1(C)C (stereo unspecified) | % | 7.45 |
| C[N+]1(C)CCCC(OC(=O)C(O)(c2ccccc2)c2ccccc2)C1 (stereo unspecified) | % | 15.6 |
| [N-]=[N+]=NCN1C(=O)C2C3C=CC(C2C1=O)C1C2C(=O)N(CN=[N+]=[N-])C(=O)C2C31 (stereo unspecified) | % | -39.4 |
| CCCCC(CC)(CO)CO | % | 5.35 |

Entry CC(C(=O)c1ccccc1)C(O)(C(F)(F)F)C(F)(F)F (stereo unspecified) , growth inhibition reported as 4.25

====

# growth inhibition per entry
# assay notes: NCI Yeast Anticancer Drug Screen. Data for the rad50 strain (AID 155);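 further: 0% = growth of vehicle-only cultures of the same strain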
# condition: S. cerevisiae rad50 strain growth inhibition; at 50.0 µM; hits give high values
# Protocol: Growth inhibition of yeast strains with defined genetic alterations is measured as a screen for potential anti-cancer activity. Selected strains with alterations in DNA damage repair or cell cycle control were exposed to compounds and growth inhibition was measured relative to vehicle treated controls. The strain used in this assay is rad50
About 79,000 compounds went through this panel and 15% of them were active in at least one assay; those are over-represented in the sample as a whole. Active and inactive are the calls of the source. Cut-off read from the data, not from the text of the source: active = growth inhibition above about 70%; inactive = the rest.

Illustrative cases are given below, each with its answer.
| molecule | growth inhibition |
| --- | --- |
| N/N=C(/C(=O)Nc1cccc(Cl)c1)C(C(=O)c1ccc(O)cc1O)C1OC(=O)c2ccccc21 (stereo unspecified) | -17.4% (inactive) |
| Nc1[nH]c(=O)nc2snnc12 | 2.35% (inactive) |
| CC(C)OP(=O)(CCC(=O)C1(O)CCC2C3CCC4=CC(=O)CCC4(C)C3CCC21C)OC(C)C (stereo unspecified) | 11.4% (inactive) |

Entry O=NN(CCCl)C(=O)NC1c2cc(Cl)ccc2-c2c(Cl)cc(Cl)cc21 (stereo unspecified) , growth inhibition reported as 84.3% (active)

Entry `CCc1ccc(NC(C)=O)cc1C` , growth inhibition reported as -9.5% (inactive)

Entry `O=C(O)C#Cc1ccccc1` , growth inhibition reported as 25.7% (inactive)

Entry `Cc1nc2c(=O)n3c4c(cccc4c2o1)CCC3` , growth inhibition reported as 14.4% (inactive)

Entry CC1COC(c2ccc(C(C)C)cc2)O1 (stereo unspecified) , growth inhibition reported as 7.5% (inactive)

Entry `Cn1c(N)nc2c1c(=O)[nH]c(=O)n2C` , growth inhibition reported as 12.6% (inactive)

Entry `OC1(C(O)(c2ccc(-c3ccccc3)cc2)c2ccc(-c3ccccc3)cc2)CCCCC1` , growth inhibition reported as -11% (inactive)

Entry OCC1C2C=CC1CC2 (stereo unspecified) , growth inhibition reported as -1.4% (inactive)

Entry `C=C(C)C(=O)Nc1ccc(-n2[nH]c(C)c(N=Nc3ccc(N(C)C)cc3)c2=O)cc1` , growth inhibition reported as 6.95% (inactive)

Entry COC(=O)C1C(O)C(C)C(O)OC1C(C)C(O)C(C)/C=C\C=C(/C)C(=O)Nc1c(C)c(OC(C)=O)c2c(c1O)C(=O)C(C)=C1OCOC(/C(C)=C/C(C)=O)=C12 (stereo unspecified) , growth inhibition reported as 14.6% (inactive)

Entry `CCC(=O)Oc1ccc(CCC(C)=O)cc1OC` , growth inhibition reported as 4.15% (inactive)

Entry `Cc1cnc2cccc(C)c2c1Cl` , growth inhibition reported as -29.5% (inactive)

Entry `O=c1c2ccccc2nnn1OCc1ccccc1` , growth inhibition reported as 24.5% (inactive)
